These entries and their values trace back to PubChem BioAssay (NCI).

# Protocol text: NCI Yeast Anticancer Drug Screen. Data for the rad50 strain (AID 155);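 note: 0% = growth of vehicle-only cultures of the same strain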
# Cond: S. cerevisiae rad50 strain growth inhibition; at 1.2 µM; stronger effect = higher value
About 79,000 compounds went through this panel and 15% of them were active in at least one assay; those are over-represented in the sample as a whole.
The reader will find reported growth inhibition values listed item by item below.
Give the number; % is assumed, so skip it.

Use these answered entries as a reference point.
> print(dat)
                                    molecule          parameter  recorded.value
 1  O=C1C=CC(=Nc2ccc3c(c2)Cc2cc(NC(=O)C(F)(F)F)ccc2-3)O1  growth inhibition               2
 2  O=C(NCCCCCCCN1CCCCCCC1)C(C1CCCCC1)C1CCCCC1  growth inhibition              41
 3  Cc1ccc(S(=O)(=O)NNC(=S)Nc2cccc3ccccc23)cc1  growth inhibition               0
 4           O=C1c2ccccc2C(=O)c2cc(CBr)ccc21  growth inhibition               2
 5  CC(C)[N+]([O-])(CCCNc1c2ccccc2nc2cccc([N+](=O)[O-])c12)C(C)C  growth inhibition              24
 6  COc1ccc(-c2cn(-c3ccc(I)cc3)c3ncnc(N)c23)cc1  growth inhibition              -2
 7     CCC/C(Cl)=N\OC(=O)Nc1cccc(C(F)(F)F)c1  growth inhibition              12
 8  COc1ccccc1N=NC(C(=O)c1ccccc1)C(=O)c1ccccc1  growth inhibition             -50
 9  COc1ccc2nc3cccc([N+](=O)[O-])c3c(NCCN(CCO)CCO)c2c1  growth inhibition              43
10  CCN(CC)CCN1C(=O)c2cccc3cc(OC)cc(c23)C1=O  growth inhibition               4

Continue with the next molecule.
input: Name the reported growth inhibition value associated with the molecule `CCCCCCCCCC/C=C\C(=O)O`
output: 15
